- study-system: panel of 255 wild-type kinases (Homo sapiens, UniProt P51617)
- Sequence (P51617 whole entry): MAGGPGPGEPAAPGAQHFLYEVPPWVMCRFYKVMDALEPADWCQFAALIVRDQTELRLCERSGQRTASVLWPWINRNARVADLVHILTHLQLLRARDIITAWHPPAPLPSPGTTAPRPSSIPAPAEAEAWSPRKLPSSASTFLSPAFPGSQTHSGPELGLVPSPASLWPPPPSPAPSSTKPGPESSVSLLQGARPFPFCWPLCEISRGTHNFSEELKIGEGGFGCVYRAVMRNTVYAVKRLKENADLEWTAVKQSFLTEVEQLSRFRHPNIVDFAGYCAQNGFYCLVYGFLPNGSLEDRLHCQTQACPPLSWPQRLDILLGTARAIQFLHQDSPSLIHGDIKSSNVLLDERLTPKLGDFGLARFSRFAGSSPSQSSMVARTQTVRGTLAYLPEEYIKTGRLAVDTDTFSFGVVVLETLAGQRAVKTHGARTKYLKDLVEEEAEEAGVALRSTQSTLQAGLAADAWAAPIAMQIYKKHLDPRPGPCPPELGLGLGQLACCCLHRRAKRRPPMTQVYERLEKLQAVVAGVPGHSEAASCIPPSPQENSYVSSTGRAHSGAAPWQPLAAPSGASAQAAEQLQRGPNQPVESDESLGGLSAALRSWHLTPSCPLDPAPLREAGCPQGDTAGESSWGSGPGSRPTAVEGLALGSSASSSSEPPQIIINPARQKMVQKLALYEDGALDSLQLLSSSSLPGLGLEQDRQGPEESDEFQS
- assay: Kinase panel profiling at 1 µmol/L (MSA or IMAP), percentage inhibition
- Format: biochemical
- assay-setup: kinase IRAK1; 1 µmol/L single concentration; read-out: %-inhibition at 1 µmol/L, IRAK1
Each entry below carries its recorded inhibition at 1 µM.
parameter-measured: inhibition at 1 µM (%)

| compound | parameter-measured | result-value |
| --- | --- | --- |
| COc1ccc(CN2C3CC2CN(c2ccc(-c4cc(OCC(C)(C)O)cn5ncc(C#N)c45)cn2)C3)cn1 [selpercatinib] | inhibition at 1 µM | 5 |
| CN1CCN(c2ccc(C(=O)Nc3n[nH]c4ccc(Cc5cc(F)cc(F)c5)cc34)c(NC3CCOCC3)c2)CC1 [entrectinib] | inhibition at 1 µM | 16 |
| Cn1cc(-c2cc3c(N4CCN(c5ncc([C@@](C)(N)c6ccc(F)cc6)cn5)CC4)ncnn3c2)cn1 [avapritinib] | inhibition at 1 µM | 8 |
| C[C@H]1Oc2cc(cnc2N)-c2c(nn(C)c2C#N)CN(C)C(=O)c2ccc(F)cc21 [lorlatinib] | inhibition at 1 µM | 10 |
| O=C(Nc1cnn2ccc(N3CCC[C@@H]3c3cc(F)ccc3F)nc12)N1CC[C@H](O)C1 [larotrectinib] | inhibition at 1 µM | -0.211 |
| Cc1nc(NC(=O)N2CCC[C@H]2C(N)=O)sc1-c1ccnc(C(C)(C)C(F)(F)F)c1 [alpelisib] | inhibition at 1 µM | -5.3 |
| Cc1cc(Nc2ncnc3ccc(NC4=NC(C)(C)CO4)cc23)ccc1Oc1ccn2ncnc2c1 [tucatinib] | inhibition at 1 µM | 4.63 |
| CCn1c(=O)c(-c2cc(NC(=O)Nc3ccccc3)c(F)cc2Br)cc2cnc(NC)cc21 [ripretinib] | inhibition at 1 µM | -5.68 |
| CCN1C(=O)N(c2c(F)c(OC)cc(OC)c2F)Cc2cnc3[nH]c(CN4CCOCC4)cc3c21 [pemigatinib] | inhibition at 1 µM | -5.31 |
| CO[C@]1(C(=O)N[C@@H](C)c2ccc(-n3cc(F)cn3)nc2)CC[C@H](c2nc(C)cc(Nc3cc(C)[nH]n3)n2)CC1 [pralsetinib] | inhibition at 1 µM | 9 |
| C=CC(=O)N1CCC([C@@H]2CCNc3c(C(N)=O)c(-c4ccc(Oc5ccccc5)cc4)nn32)CC1 [zanubrutinib] | inhibition at 1 µM | -2.53 |

----------
inhibition at 1 µM overview
- study-system: panel of 255 wild-type kinases (Homo sapiens, UniProt Q04759)
- Sequence (Q04759 whole entry): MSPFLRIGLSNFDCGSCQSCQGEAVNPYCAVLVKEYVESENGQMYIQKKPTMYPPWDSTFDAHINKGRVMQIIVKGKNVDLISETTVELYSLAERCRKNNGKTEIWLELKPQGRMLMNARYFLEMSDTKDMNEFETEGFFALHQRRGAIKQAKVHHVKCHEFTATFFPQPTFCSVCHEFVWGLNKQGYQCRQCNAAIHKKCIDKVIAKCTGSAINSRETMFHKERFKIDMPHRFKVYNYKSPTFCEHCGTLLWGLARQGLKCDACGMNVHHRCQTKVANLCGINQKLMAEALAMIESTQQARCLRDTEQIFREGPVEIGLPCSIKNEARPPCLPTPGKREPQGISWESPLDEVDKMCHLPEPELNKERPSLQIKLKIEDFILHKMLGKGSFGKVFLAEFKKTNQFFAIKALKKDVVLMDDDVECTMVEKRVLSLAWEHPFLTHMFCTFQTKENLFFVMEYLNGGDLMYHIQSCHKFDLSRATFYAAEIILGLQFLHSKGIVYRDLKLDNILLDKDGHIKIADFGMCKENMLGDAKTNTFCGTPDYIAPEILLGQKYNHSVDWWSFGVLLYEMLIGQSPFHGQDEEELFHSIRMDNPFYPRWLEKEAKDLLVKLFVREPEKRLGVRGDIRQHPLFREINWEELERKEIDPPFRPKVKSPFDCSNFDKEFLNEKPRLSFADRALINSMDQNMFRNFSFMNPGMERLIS
- assay: Kinase panel profiling at 1 µmol/L (MSA or IMAP), percentage inhibition
- Type: biochemical
- assay-setup: kinase PKCθ; 1 µmol/L single concentration; read-out: %-inhibition at 1 µmol/L, PKCθ

| molecule | inhibition at 1 µM / % |
| --- | --- |
| COc1cc2ncnc(Nc3ccc(F)c(Cl)c3)c2cc1NC(=O)/C=C/CN1CCCCC1 [dacomitinib] | 1.57 |
| COc1ccc(CN2C3CC2CN(c2ccc(-c4cc(OCC(C)(C)O)cn5ncc(C#N)c45)cn2)C3)cn1 [selpercatinib] | -2.29 |
| Cc1nc(NC(=O)N2CCC[C@H]2C(N)=O)sc1-c1ccnc(C(C)(C)C(F)(F)F)c1 [alpelisib] | -0.212 |
| C=CC(=O)N1CCC([C@@H]2CCNc3c(C(N)=O)c(-c4ccc(Oc5ccccc5)cc4)nn32)CC1 [zanubrutinib] | -3 |
| Cn1cc(-c2cc3c(N4CCN(c5ncc([C@@](C)(N)c6ccc(F)cc6)cn5)CC4)ncnn3c2)cn1 [avapritinib] | 2.6 |
| Cn1cnc2c(F)c(Nc3ccc(Br)cc3F)c(C(=O)NOCCO)cc21 [binimetinib] | -2.27 |
| CN1CCN(c2ccc(C(=O)Nc3n[nH]c4ccc(Cc5cc(F)cc(F)c5)cc34)c(NC3CCOCC3)c2)CC1 [entrectinib] | 10 |
| CO[C@]1(C(=O)N[C@@H](C)c2ccc(-n3cc(F)cn3)nc2)CC[C@H](c2nc(C)cc(Nc3cc(C)[nH]n3)n2)CC1 [pralsetinib] | -0.598 |
| CCN1C(=O)N(c2c(F)c(OC)cc(OC)c2F)Cc2cnc3[nH]c(CN4CCOCC4)cc3c21 [pemigatinib] | -2.16 |
| CCN1CCN(c2ccc(Nc3cc(N(C)C(=O)Nc4c(Cl)c(OC)cc(OC)c4Cl)ncn3)cc2)CC1 [infigratinib] | -3 |
| Cn1cnc2c(F)c(Nc3ccc(Br)cc3Cl)c(C(=O)NOCCO)cc21 [selumetinib] | -0.321 |
| C[C@H](Nc1ncnc2nc[nH]c12)c1cc2cccc(Cl)c2c(=O)n1-c1ccccc1 [duvelisib] | 1.09 |
| O=C(Nc1cnn2ccc(N3CCC[C@@H]3c3cc(F)ccc3F)nc12)N1CC[C@H](O)C1 [larotrectinib] | -2.77 |
| FC(F)(F)c1ccc(CNc2ccc(Cc3c[nH]c4ncc(Cl)cc34)cn2)cn1 [pexidartinib] | 3.27 |

----------
- Test system: 134 cancer cell lines
- assay: Cell viability assay (ATPlite, 72 hours), IC50 on cancer cell line panel
- assay-setup: Homo sapiens, LoVo, read-out: IC50 in cell proliferation assay, LoVo cell line
pIC50: −log10 of the molar value.

| molecule | qualifier-operator | pIC50 |
| --- | --- | --- |
| CO[C@]1(C(=O)N[C@@H](C)c2ccc(-n3cc(F)cn3)nc2)CC[C@H](c2nc(C)cc(Nc3cc(C)[nH]n3)n2)CC1 [pralsetinib] | = | 5.82 |
| Cc1cc(Nc2ncnc3ccc(NC4=NC(C)(C)CO4)cc23)ccc1Oc1ccn2ncnc2c1 [tucatinib] | = | 4.59 |
| CCCS(=O)(=O)Nc1ccc(F)c(C(=O)c2c[nH]c3ncc(-c4ccc(Cl)cc4)cc23)c1F [vemurafenib] | < | 4.50 |
| CC(C)(C)c1nc(-c2cccc(NS(=O)(=O)c3c(F)cccc3F)c2F)c(-c2ccnc(N)n2)s1 [dabrafenib] | = | 5.36 |

----------
- study-system: panel of 255 wild-type kinases (Homo sapiens, UniProt O14920)
- Sequence (O14920 whole entry): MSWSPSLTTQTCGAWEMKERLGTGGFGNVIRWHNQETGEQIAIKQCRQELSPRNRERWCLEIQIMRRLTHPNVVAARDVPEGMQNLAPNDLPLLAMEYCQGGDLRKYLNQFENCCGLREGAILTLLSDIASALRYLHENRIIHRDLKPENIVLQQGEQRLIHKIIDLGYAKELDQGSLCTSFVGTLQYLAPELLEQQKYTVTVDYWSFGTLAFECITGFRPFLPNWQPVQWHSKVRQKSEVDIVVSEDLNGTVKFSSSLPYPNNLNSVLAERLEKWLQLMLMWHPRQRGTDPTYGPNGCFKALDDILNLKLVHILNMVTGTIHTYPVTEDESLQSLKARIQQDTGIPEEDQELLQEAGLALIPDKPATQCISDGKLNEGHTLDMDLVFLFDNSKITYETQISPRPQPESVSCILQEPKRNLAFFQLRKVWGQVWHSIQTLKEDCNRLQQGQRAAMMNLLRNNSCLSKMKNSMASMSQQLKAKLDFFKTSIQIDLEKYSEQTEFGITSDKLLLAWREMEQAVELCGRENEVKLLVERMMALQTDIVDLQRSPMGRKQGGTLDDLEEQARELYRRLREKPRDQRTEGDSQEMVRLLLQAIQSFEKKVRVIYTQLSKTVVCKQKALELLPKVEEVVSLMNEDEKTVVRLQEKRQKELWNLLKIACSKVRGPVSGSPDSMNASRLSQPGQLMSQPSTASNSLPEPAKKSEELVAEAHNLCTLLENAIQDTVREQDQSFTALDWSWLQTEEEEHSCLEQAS
- assay: Kinase panel profiling at 1 µmol/L (MSA or IMAP), percentage inhibition
- Format: biochemical
- assay-setup: kinase IKKβ; 1 µmol/L single concentration; read-out: %-inhibition at 1 µmol/L, IKKβ

| smiles-repr | inhibition at 1 µM, % |
| --- | --- |
| COC(=O)N[C@@H](C)CNc1nccc(-c2cn(C(C)C)nc2-c2cc(Cl)cc(NS(C)(=O)=O)c2F)n1 | 0.644 |
| C=CC(=O)N1CCC([C@@H]2CCNc3c(C(N)=O)c(-c4ccc(Oc5ccccc5)cc4)nn32)CC1 | -0.69 |
| COc1ccc(CN2C3CC2CN(c2ccc(-c4cc(OCC(C)(C)O)cn5ncc(C#N)c45)cn2)C3)cn1 | -2.15 |
| Cn1cnc2c(F)c(Nc3ccc(Br)cc3F)c(C(=O)NOCCO)cc21 | -4 |
| FC(F)(F)c1ccc(CNc2ccc(Cc3c[nH]c4ncc(Cl)cc34)cn2)cn1 | 5 |
| Cc1nc(NC(=O)N2CCC[C@H]2C(N)=O)sc1-c1ccnc(C(C)(C)C(F)(F)F)c1 | 0.111 |
| CCc1nc(C(N)=O)c(Nc2ccc(N3CCC(N4CCN(C)CC4)CC3)c(OC)c2)nc1NC1CCOCC1 | 5.66 |
| C[C@H](Nc1ncnc2nc[nH]c12)c1cc2cccc(Cl)c2c(=O)n1-c1ccccc1 | 0.466 |
| CN1CCN(c2ccc(C(=O)Nc3n[nH]c4ccc(Cc5cc(F)cc(F)c5)cc34)c(NC3CCOCC3)c2)CC1 | -0.451 |
| O=C(Nc1cnn2ccc(N3CCC[C@@H]3c3cc(F)ccc3F)nc12)N1CC[C@H](O)C1 | -1.76 |
| COc1cc2ncnc(Nc3ccc(F)c(Cl)c3)c2cc1NC(=O)/C=C/CN1CCCCC1 | 6 |
| CCn1c(=O)c(-c2cc(NC(=O)Nc3ccccc3)c(F)cc2Br)cc2cnc(NC)cc21 | 21 |
| Cn1cc(-c2cc3c(N4CCN(c5ncc([C@@](C)(N)c6ccc(F)cc6)cn5)CC4)ncnn3c2)cn1 | 0.049 |
| CO[C@]1(C(=O)N[C@@H](C)c2ccc(-n3cc(F)cn3)nc2)CC[C@H](c2nc(C)cc(Nc3cc(C)[nH]n3)n2)CC1 | 32 |

----------
- study-system: panel of 255 wild-type kinases (Homo sapiens)
- assay: Kinase panel profiling at 1 µmol/L (MSA or IMAP), percentage inhibition
- Type: biochemical
- assay-setup: kinase EPHA7; 1 µmol/L single concentration; read-out: %-inhibition at 1 µmol/L, EPHA7
Recorded inhibition at 1 µM values for a group of compounds are listed next.

| smiles-repr | study-system | inhibition at 1 µM [%] |
| --- | --- | --- |
| COc1cc2ncnc(Nc3ccc(F)c(Cl)c3)c2cc1NC(=O)/C=C/CN1CCCCC1 | panel of 255 wild-type kinases (Homo sapiens) | 38 |
| Cc1cc(Nc2ncnc3ccc(NC4=NC(C)(C)CO4)cc23)ccc1Oc1ccn2ncnc2c1 | panel of 255 wild-type kinases (Homo sapiens) | 1.07 |
| CCc1nc(C(N)=O)c(Nc2ccc(N3CCC(N4CCN(C)CC4)CC3)c(OC)c2)nc1NC1CCOCC1 | panel of 255 wild-type kinases (Homo sapiens) | 79 |

The values you see were collected from paper PMC9516332.
